These entries and their values trace back to patent US6653529B2.

# Test system: 8692IT (heterozygous XI12 imi-tolerant corn line)
# TEST DESCRIPTION: Greenhouse spray test of corn lines with imidazolinone herbicides, injury score
# Type: in vivo
# EXPERIMENTAL CONTEXT: 4×: PURSUIT 250, RAPTOR 160, ARSENAL 96, CADRE 400 g/ha, score 0 (dead) to 5 (healthy), 16 days
Quick reference for M.S. among some compounds
MEASURED METRIC: M.S.

{"COMPOUND": "Cc1cnc(C2=NC(=O)C(C)(C(C)C)N2)c(C(=O)O)c1 (stereo not shown) [CADRE ®, imazameth]", "READING": 4.4}
{"COMPOUND": "CC(C)C1(C)N=C(c2ncccc2C(=O)O)NC1=O (stereo not shown) [ARSENAL ®, imazapyr]", "READING": 4}
{"COMPOUND": "CCc1cnc(C2=NC(C)(C(C)C)C(=O)N2)c(C(=O)O)c1 (stereo not shown) [PURSUIT ®, imazethapyr]", "READING": 5}
{"COMPOUND": "COCc1cnc(C2=NC(C)(C(C)C)C(=O)N2)c(C(=O)O)c1 (stereo not shown) [RAPTOR ®, imazamox]", "READING": 3}

* * *

Quick reference for Total No. of kernels/3 panicles among some molecules
# Test system: transgenic rice Line 29
# TEST DESCRIPTION: Response of rice plants to various herbicides, seed set in greenhouse
# Assay type: in vivo
# EXPERIMENTAL CONTEXT: post-emergence, 1× rate, 1× g ai/ha: PURSUIT 62.5, CADRE 32, ARSENAL 24, RAPTOR 32, SCEPTER 125, ACCENT 35, CLASSIC 5, AC322,140 20, LONDAX 68

{"MOLECULE": "COc1cc(OC)nc(NC(=O)NS(=O)(=O)Nc2ccccc2C(=O)C2CC2)n1", "Total No. of kernels/3 panicles": 166}
{"MOLECULE": "CCOC(=O)c1ccccc1S(=O)(=O)NC(=O)Nc1nc(Cl)cc(OC)n1", "Total No. of kernels/3 panicles": 130}
{"MOLECULE": "COCc1cnc(C2=NC(C)(C(C)C)C(=O)N2)c(C(=O)O)c1 (centres unmarked)", "Total No. of kernels/3 panicles": 180}
{"MOLECULE": "CCc1cnc(C2=NC(C)(C(C)C)C(=O)N2)c(C(=O)O)c1 (centres unmarked)", "Total No. of kernels/3 panicles": 146}
{"MOLECULE": "COc1cc(OC)nc(NC(=O)NS(=O)(=O)c2ncccc2C(=O)N(C)C)n1", "Total No. of kernels/3 panicles": 114}

* * *

# Test system: untransformed Nt rice plants
# TEST DESCRIPTION: Response of rice plants to various herbicides, seed set in greenhouse
# Assay type: in vivo
# EXPERIMENTAL CONTEXT: post-emergence, 6× rate, 1× g ai/ha: PURSUIT 62.5, CADRE 32, ARSENAL 24, RAPTOR 32, SCEPTER 125, ACCENT 35, CLASSIC 5, AC322,140 20, LONDAX 68
Quick reference for Total No. of kernels/3 panicles among some molecules
MEASURED METRIC: Total No. of kernels/3 panicles

{"MOLECULE": "COc1cc(OC)nc(NC(=O)NS(=O)(=O)c2ncccc2C(=O)N(C)C)n1", "READING": 0}
{"MOLECULE": "CC(C)C1(C)N=C(c2ncccc2C(=O)O)NC1=O (stereo not drawn)", "READING": 0}
{"MOLECULE": "Cc1cnc(C2=NC(=O)C(C)(C(C)C)N2)c(C(=O)O)c1 (stereo not drawn)", "READING": 0}
{"MOLECULE": "CC(C)C1(C)N=C(c2nc3ccccc3cc2C(=O)O)NC1=O (stereo not drawn)", "READING": 0}
{"MOLECULE": "CCOC(=O)c1ccccc1S(=O)(=O)NC(=O)Nc1nc(Cl)cc(OC)n1", "READING": 0}
{"MOLECULE": "COC(=O)c1ccccc1CS(=O)(=O)NC(=O)Nc1nc(OC)cc(OC)n1", "READING": 114}
{"MOLECULE": "COCc1cnc(C2=NC(C)(C(C)C)C(=O)N2)c(C(=O)O)c1 (stereo not drawn)", "READING": 0}
{"MOLECULE": "CCc1cnc(C2=NC(C)(C(C)C)C(=O)N2)c(C(=O)O)c1 (stereo not drawn)", "READING": 0}
{"MOLECULE": "COc1cc(OC)nc(NC(=O)NS(=O)(=O)Nc2ccccc2C(=O)C2CC2)n1", "READING": 121}
